Tested on: SNB-75 CNS
Experimental Protocol: NCI-60 one-dose screen, 48 h (100 = growth as untreated, 0 = no growth, -100 = all killed)
Condition Description: 10 µM unless noted
About 83,000 compounds went through this panel and 20% of them were active in at least one assay; those are over-represented in the sample as a whole. Activity calls are given as the source filed them. How the source made its calls: active means growth percent below 10; inactive means the rest.
Endpoint Name: growth

// known answers, use as guide
Cn1c2c(c3ccc(Cl)cc31)-n1cccc1C2=O
87.5% (inactive)
O=C(N/N=C/c1ccccc1SSc1ccccc1/C=N/NC(=O)c1ccccc1)c1ccccc1
65.8% (inactive)
Oc1ccc(CCC2CCCC(CCc3ccc(OCCF)cc3)N2)cc1 (stereo not given)
78.7% (inactive)
COC(=O)[C@]12CC[C@@H](C(=O)/C=C/c3cccnc3)[C@@H]1[C@H]1CC[C@@H]3[C@@]4(C)C/C(=C/c5cccnc5)C(=O)C(C)(C)[C@@H]4CC[C@@]3(C)[C@]1(C)CC2
-98.7% (active)
Cc1cc(N=O)cc(C(C)(C)C)c1O
87.7% (inactive)

Could you share what growth was measured for O=C1NC(=Nc2ccc(S(=O)(=O)Nc3nccs3)cc2)S/C1=C\c1coc2ccccc2c1=O , tested on SNB-75 CNS?
55.9% (inactive)

Could you share what growth was measured for O=C1CCN2C(=O)Nc3ccccc3C2C1 (stereo not given) , tested on SNB-75 CNS?
83.4% (inactive)

Could you share what growth was measured for C[C@@H](Oc1ccc(C(=O)NS(=O)(=O)C(C)(C)C)cc1C(F)(F)F)c1ccc(Oc2ccccc2)cn1 , tested on SNB-75 CNS?
-9.43% (active)

Could you share what growth was measured for O=C(NO)c1ccc(Cn2c(=O)n(CCc3ccc(O)cc3)c(=O)c3ccccc32)cc1 , tested on SNB-75 CNS?
47.8% (inactive)

Could you share what growth was measured for NC1=C(C/C(N)=N\O)C(c2ccccc2Cl)c2c(ccc3ccccc23)O1 (stereo not given) , tested on SNB-75 CNS?
75.2% (inactive)

Could you share what growth was measured for C=C(C)[C@@H]1CC[C@]2(C(=O)N3CCN(CC)CC3)CC[C@]3(C)[C@H](CC[C@@H]4[C@@](C)(CCC(=O)N5CCN(CC)CC5)[C@H](C(=C)C)CC[C@]43C)[C@@H]12 , tested on SNB-75 CNS?
69.2% (inactive)

Could you share what growth was measured for C#CCn1c(C)cc(C)c(C#N)c1=O , tested on SNB-75 CNS?
103% (inactive)

Could you share what growth was measured for NC(N)=N/N=C/c1ccc(-c2ccc(-c3ccc(Cl)cn3)s2)cc1 , tested on SNB-75 CNS?
88.9% (inactive)

Could you share what growth was measured for O=C1C(Cl)=C(Nc2ccc(S(=O)(=O)c3ccc(NC4=C(Cl)C(=O)c5ccccc5C4=O)cc3)cc2)C(=O)c2ccccc21 , tested on SNB-75 CNS?
57.7% (inactive)

Could you share what growth was measured for O=S(=O)(NCCNc1cc(-c2cn(-c3ccccc3)nc2-c2cccc(O)c2)ccn1)c1ccc(C(F)(F)F)cc1 , tested on SNB-75 CNS?
49.7% (inactive)

----------
Below is a list of entries, each paired with its recorded growth value.
System: BT-549 breast
Experimental Protocol: NCI-60 one-dose screen, 48 h (100 = growth as untreated, 0 = no growth, -100 = all killed)
Condition Description: 10 µM unless noted
This is part of a sample that, as a whole, favours compounds with a hit. Of some 83,000 tested, about 20% had one in any assay.
Field: numeric (%). Do not append units.

CC(c1ccccc1)N1C(=O)C(C2SC(=S)N(C(C)c3ccccc3)C2=O)SC1=S (centres undefined)
89.5
CCN1CCN(C(=O)[C@]23CC[C@@H](C)[C@H](C)[C@H]2C2=CC[C@@H]4[C@@]5(C)C/C(=C/c6cccc(OC)c6OC)C(=O)C(C)(C)[C@@H]5CC[C@@]4(C)[C@]2(C)CC3)CC1
55
Clc1ccc2[nH]cc(-c3nc(-c4c[nH]c5ncccc45)cs3)c2c1
59.3

Look at this compound and give its reported growth. N#C/C(=C\c1ccc(-c2ccc(Cl)cc2)o1)c1nc(-c2ccco2)cs1
103
